Field IC50: reported value for Tyrosine-protein phosphatase non-receptor type 22 (Homo sapiens); entries drawn from several documents.
# study-system: Tyrosine-protein phosphatase non-receptor type 22 (Homo sapiens)
# Sequence (Q9Y2R2 whole entry): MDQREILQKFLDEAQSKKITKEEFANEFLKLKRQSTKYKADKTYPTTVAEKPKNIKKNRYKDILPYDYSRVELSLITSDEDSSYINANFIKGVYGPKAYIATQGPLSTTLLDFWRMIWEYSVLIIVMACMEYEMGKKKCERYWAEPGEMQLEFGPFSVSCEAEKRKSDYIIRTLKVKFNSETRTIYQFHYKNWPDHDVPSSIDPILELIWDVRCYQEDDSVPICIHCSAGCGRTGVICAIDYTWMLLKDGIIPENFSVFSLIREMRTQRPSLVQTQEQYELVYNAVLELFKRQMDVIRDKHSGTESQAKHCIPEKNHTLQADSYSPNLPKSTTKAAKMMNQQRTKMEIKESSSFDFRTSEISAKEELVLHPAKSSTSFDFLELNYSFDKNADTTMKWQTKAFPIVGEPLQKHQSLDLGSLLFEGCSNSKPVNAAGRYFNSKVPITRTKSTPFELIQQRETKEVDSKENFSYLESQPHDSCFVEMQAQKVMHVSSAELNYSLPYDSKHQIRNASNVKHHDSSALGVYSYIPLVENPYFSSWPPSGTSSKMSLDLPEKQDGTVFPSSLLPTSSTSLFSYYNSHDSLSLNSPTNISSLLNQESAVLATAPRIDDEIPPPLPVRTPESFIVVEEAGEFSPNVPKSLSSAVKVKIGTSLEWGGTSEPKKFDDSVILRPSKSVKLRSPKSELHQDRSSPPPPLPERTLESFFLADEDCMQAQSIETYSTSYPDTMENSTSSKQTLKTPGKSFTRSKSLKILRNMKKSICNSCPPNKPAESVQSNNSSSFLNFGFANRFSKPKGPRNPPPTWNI
readout-label: IC50 (µM)

# annotated cases, reported IC50 shown
compound-smiles: O=C(O)CCCN1C(=O)/C(=C\c2ccc(-c3nc4ccccc4s3)o2)SC1=S
study-system: Tyrosine-protein phosphatase non-receptor type 22 (Homo sapiens)
units-text: µM
IC50: 1.3
--
compound-smiles: O=C(O)c1cc2c(CCc3cccc(F)c3)c(-c3ccccc3)oc2cc1O
study-system: Tyrosine-protein phosphatase non-receptor type 22 (Homo sapiens)
units-text: µM
IC50: 12.4
--
compound-smiles: O=C(O)c1cc2cc(N(Cc3ccc(-c4ccccc4)cc3)S(=O)(=O)c3cc(Cl)c(F)cc3F)ccc2o1
study-system: Tyrosine-protein phosphatase non-receptor type 22 (Homo sapiens)
units-text: µM
IC50: 18.7

I. Cc1ccccc1NC(=O)CN1C(=O)S/C(=C\c2cccn2-c2cccc(C(=O)O)c2)C1=O
II. Cn1c(-c2ccccc2)c(-c2cn(CCC(=O)Nc3ccc(-c4ccccc4)cc3)nn2)c2cc(C(=O)O)c(O)cc21
For the pair I and II , which entry has the numerically smaller recorded IC50? Please indicate the selected item by its label.
I
